Cited source: ChEMBL document CHEMBL1201862

system.name: UniProtKB Q64346
Sequence (Q64346 whole entry): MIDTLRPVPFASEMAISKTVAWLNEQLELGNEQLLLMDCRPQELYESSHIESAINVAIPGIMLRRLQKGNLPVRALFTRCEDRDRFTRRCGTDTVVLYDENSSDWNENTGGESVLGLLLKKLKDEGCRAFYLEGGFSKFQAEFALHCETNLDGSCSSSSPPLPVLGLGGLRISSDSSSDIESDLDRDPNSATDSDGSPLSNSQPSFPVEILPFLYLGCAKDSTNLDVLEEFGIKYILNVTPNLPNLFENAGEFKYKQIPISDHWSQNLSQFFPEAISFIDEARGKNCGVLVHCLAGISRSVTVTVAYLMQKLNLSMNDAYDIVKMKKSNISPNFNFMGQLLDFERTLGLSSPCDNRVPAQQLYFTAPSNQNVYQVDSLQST
The source made the active and inactive calls.
Write down the outcome that applies. Available outcomes: T = active, F = inactive

Look over these answered cases.
Clc1cccc(Cl)c1COc1nnc(-c2cccs2)c(-c2cccs2)n1 ... F
COCCCNc1nc(=O)n(-c2ccc(F)cc2)c(=O)[nH]1 ... F
O=C1c2ccccc2CC1Sc1nnc(-c2ccco2)c(-c2ccco2)n1 (centres undefined) ... T

From here, focus on the item given below.
Exam item: Recorded call for `Cn1c(=O)n(CC(N)=O)c(=O)n(-c2ccccc2)c1=O` ?
Marked response: F

====

system.name: Cytochrome P450 2D6 (Homo sapiens, UniProt P10635);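 further: CYP2D6 member of a cytochrome P450 panel assay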
Sequence (P10635 whole entry): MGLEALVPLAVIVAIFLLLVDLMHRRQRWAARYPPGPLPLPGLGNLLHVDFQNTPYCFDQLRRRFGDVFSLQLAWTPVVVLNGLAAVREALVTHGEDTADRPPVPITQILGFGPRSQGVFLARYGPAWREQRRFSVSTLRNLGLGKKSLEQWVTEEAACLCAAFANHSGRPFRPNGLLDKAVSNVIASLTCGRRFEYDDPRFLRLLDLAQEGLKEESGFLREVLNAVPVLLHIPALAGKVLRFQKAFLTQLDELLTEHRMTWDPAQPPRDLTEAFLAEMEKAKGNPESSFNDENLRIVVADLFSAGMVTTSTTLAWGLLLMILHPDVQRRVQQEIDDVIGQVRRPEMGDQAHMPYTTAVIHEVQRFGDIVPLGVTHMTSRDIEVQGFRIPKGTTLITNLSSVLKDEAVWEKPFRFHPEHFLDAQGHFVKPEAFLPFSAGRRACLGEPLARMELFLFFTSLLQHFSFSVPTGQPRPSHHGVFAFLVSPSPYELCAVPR
AC50 for assorted compounds

Solved entries (count: 6):
C[C@@H]1CC[C@@H]2C(=O)N3[C@@H](CC[C@@H](C)[C@@H]3c3ccc(-c4ccco4)cc3)C(=O)N2[C@H]1c1ccc(-c2ccco2)cc1 ... 6.31 µM (inconclusive)
NNC(=O)c1ccncc1 ... 12.6 µM (inconclusive)
COCCn1c(=O)c(-c2ccccc2)nc2cnc(N(C)C)nc21 ... 12.6 µM (inconclusive)
COC(=O)C(Cc1ccc(OC(=O)c2ccc(Cl)cc2)cc1)N1Cc2ccccc2C1=O (centres undefined) ... 5.01 µM (inconclusive)
CCOc1cc(/C=N/NC(=O)c2cccc([N+](=O)[O-])c2)ccc1OS(=O)(=O)c1ccccc1 ... 1 µM (inconclusive)
C=CCN=C(NC#N)SCc1ccccc1 ... 22.4 µM (inconclusive)

Exam item: Report AC50 for `N#Cc1cccc(-c2nc(NCc3cccs3)c3ccccc3n2)c1` please.
Marked response: 5.01 µM (inconclusive)

Exam item: Report AC50 for `COc1ccccc1CCn1c(=O)c(-c2cccc(Cl)c2)nc2cncnc21` please.
Marked response: 31.6 µM (inconclusive)

Exam item: Report AC50 for `O=C(CCCN1CCN(c2ccccn2)CC1)c1ccc(F)cc1` please.
Marked response: 7.94 µM (inconclusive)
